Measured values drawn from patent US20240190888A1 for this set.

Molecular target: 5-HT1A receptor (Homo sapiens, UniProt P08908)
Sequence (P08908 whole entry): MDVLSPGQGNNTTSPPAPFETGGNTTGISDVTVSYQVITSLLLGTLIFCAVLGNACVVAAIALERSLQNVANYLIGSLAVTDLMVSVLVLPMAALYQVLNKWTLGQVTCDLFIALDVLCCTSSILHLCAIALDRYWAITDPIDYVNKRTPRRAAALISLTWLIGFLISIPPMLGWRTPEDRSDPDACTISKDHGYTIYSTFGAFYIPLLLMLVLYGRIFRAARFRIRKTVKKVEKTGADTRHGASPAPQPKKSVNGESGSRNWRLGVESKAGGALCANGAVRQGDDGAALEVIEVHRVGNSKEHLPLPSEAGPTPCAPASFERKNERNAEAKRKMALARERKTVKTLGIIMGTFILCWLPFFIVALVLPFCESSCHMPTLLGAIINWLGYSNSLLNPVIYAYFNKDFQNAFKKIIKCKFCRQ
Test: 5-HT1A receptor cAMP agonist test (HEK293 cell line stably expressing 5-HT1A receptor)
Conditions: cAMP agonist assay with forskolin, HEK293 cells stably expressing 5-HT1A
property_measured: pEC50
Answers are plain numbers, as −log10 of the molar value.

Consider the worked cases shown below.
CNCC1OCC2(CC2)c2sccc21 (stereo not drawn) ... 5.61
[2H]C([2H])([2H])NCC1OCC2(CC2)c2ccsc21 (stereo not drawn) ... 5.57
CCNCC1OCC2(CC2)c2ccsc21 (stereo not drawn) ... 5.86
c1cc2c(s1)C(CN1CCC1)OCC21CC1 (stereo not drawn) ... 5.26
CNCC1OCC2(CC2)c2ccsc21 (stereo not drawn) ... 5.81

# evaluate next
**Q:** Any idea what pEC50 came out for CNC[C@@H]1OCC2(CC2)c2ccsc21 (single isomer, unassigned) on 5-HT1A receptor (Homo sapiens, UniProt P08908)?
**A:** 6.04
